For each of the compounds below, state its IC50.
System name: Secreted chorismate mutase (Mycobacterium tuberculosis (strain ATCC 25618 / H37Rv), UniProt P9WIB9)
Sequence (P9WIB9 whole entry): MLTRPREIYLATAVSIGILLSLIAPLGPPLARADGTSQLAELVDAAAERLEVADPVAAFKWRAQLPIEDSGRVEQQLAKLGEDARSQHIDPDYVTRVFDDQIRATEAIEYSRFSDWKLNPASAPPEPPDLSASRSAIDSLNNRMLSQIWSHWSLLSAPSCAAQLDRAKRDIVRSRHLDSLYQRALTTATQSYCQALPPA
Protocol text: CM Assay
Experimental setup: pH 7.5; 37 °C

# query: IC50 of entry Cc1ccccc1O
23.1 µM

# query: IC50 of entry CC(=O)Oc1cc(C)ccc1C(C)C
4.08 µM

# query: IC50 of entry CC1CCC(C(C)C)C(O)C1 (stereo not drawn)
26.4 µM

# query: IC50 of entry Cc1cc(Cl)c(C(C)C)cc1O
13.7 µM

# query: IC50 of entry C=CCc1ccc(O)c(OC)c1
28.6 µM

# query: IC50 of entry C=C(C)C1CCC(C)CC1O (stereo not drawn) [(±)Neo isopulegol]
13.6 µM

# query: IC50 of entry Cc1ccc(C(C)C)cc1
11.6 µM

# query: IC50 of entry Cc1ccc(C(C)C)cc1O
1.06 µM

# query: IC50 of entry COc1cc(C)ccc1C(C)C
21.6 µM

# query: IC50 of entry COc1cc(C=O)ccc1O [4-hydroxy-3-methoxybenzaldehyde]
24.8 µM

# query: IC50 of entry CC(C)c1cccc(O)c1
21.4 µM

# query: IC50 of entry Cc1ccc(C(C)C)c(O)c1
28.4 µM

# query: IC50 of entry Cc1cc(O)cc(C(C)C)c1
26.8 µM
